Source listed as patent US12297193B2.

// reported Dmax for each item listed
study system: PTPN2 (Homo sapiens, UniProt P17706)
Construct: endogenous in cells; host or cells: HEK293T
Sequence (P17706 whole entry): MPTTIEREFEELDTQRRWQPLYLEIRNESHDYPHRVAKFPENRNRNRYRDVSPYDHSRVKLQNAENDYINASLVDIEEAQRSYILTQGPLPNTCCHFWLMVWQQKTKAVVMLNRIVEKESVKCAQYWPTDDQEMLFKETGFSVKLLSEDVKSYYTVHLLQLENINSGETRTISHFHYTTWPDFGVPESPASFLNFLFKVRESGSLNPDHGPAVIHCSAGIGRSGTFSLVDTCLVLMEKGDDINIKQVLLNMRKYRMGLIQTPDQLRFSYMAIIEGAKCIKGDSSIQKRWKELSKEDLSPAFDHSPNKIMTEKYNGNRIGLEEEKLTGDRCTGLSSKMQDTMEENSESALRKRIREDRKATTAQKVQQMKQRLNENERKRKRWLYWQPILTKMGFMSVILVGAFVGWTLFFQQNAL
method: Western blot, PTPN2 degradation in HEK293T cells
Type: cell-based
study conditions: HEK-293T, 48 hours incubation, Western blot
reported endpoint: Dmax (%)

>>> recorded_number("O=C(O)COc1c(C(=O)O)sc(-c2cccc(NC3CCN(S(=O)(=O)Cc4ccc5oc(N6CCC(c7ccc8c9c(cccc79)C(=O)N8C7CCC(=O)NC7=O)CC6)nc5c4)C4(CC4)C3)c2)c1Cl (stereo not drawn) [Compound 57]")
97.2
>>> recorded_number("CC1(C)CC(Nc2cccc(-c3sc(C(=O)O)c(OCC(=O)O)c3Cl)c2)CCN1S(=O)(=O)Cc1ccc2cnc(N3CCC(c4ccc5c6c(cccc46)C(=O)N5C4CCC(=O)NC4=O)CC3)nc2c1 (stereo not drawn) [Compound 16]")
96.5
>>> recorded_number("CC1(C)CC(Nc2cccc(-c3sc(C(=O)O)c(OC(F)(F)C(=O)O)c3Cl)c2)CCN1S(=O)(=O)Cc1ccc2oc(N3CCC(c4ccc5c6c(cccc46)C(=O)N5C4CCC(=O)NC4=O)CC3)nc2c1 (stereo not drawn) [Compound 78]")
100

----------
method: PK study in SD rats after a single intravenous administration
Assay type: in vivo
study conditions: Sprague-Dawley (SD), rat, plasma, 2 mg/kg, 0.083 h
reported endpoint: concentration at 0.083 h

>>> result("CC1(C)C[C@@H](Nc2cccc(-c3sc(C(=O)O)c(OCC(=O)O)c3Cl)c2)CCN1S(=O)(=O)Cc1cccc(NC(=O)N2CCC(c3ccc4c5c(cccc35)C(=O)N4[C@H]3CCC(=O)NC3=O)CC2)c1 [Ref. Cpd, reference compound]")
"22700 ng/mL"

----------
method: PK study in SD rats after a single intravenous administration
Assay type: in vivo
study conditions: Sprague-Dawley (SD), rat, plasma, 2 mg/kg, 0.5 h
reported endpoint: concentration at 0.5 h (ng/mL)

>>> recorded_number("CC1(C)C[C@@H](Nc2cccc(-c3sc(C(=O)O)c(OCC(=O)O)c3Cl)c2)CCN1S(=O)(=O)Cc1cccc(NC(=O)N2CCC(c3ccc4c5c(cccc35)C(=O)N4[C@H]3CCC(=O)NC3=O)CC2)c1 [Ref. Cpd, reference compound]")
1290

----------
method: PK study in SD rats after a single intravenous administration
Format: in vivo
study conditions: Sprague-Dawley (SD), rat, plasma, 1 mg/kg, 0.25 h
Procedure: A PK study of the compounds after a single intravenous administration. SD rats were randomly assigned to 5 groups (3 rats/group). Blood samples were collected from animals at 0.083 h, 0.25 h, 0.5 h, 1 h, 2 h, 4 h, 8 h, 10 h and 24 h after administration. […] The concentration of compounds in plasma were determined by an LC-MS/MS method with the lower limit of quantitation (LLOQ) of 0.50 ng/mL. Pharmacokinetic parameters were calculated with WinNonlin to assess the PK characteristics in SD rats. […]
// reported concentration at 0.25 h for each item listed
reported endpoint: concentration at 0.25 h (ng/mL)

>>> recorded_number("CC1(C)CC(Nc2cccc(-c3sc(C(=O)O)c(OCC(=O)O)c3Cl)c2)CCN1S(=O)(=O)Cc1ccc2oc(N3CCC(c4ccc5c6c(cccc46)C(=O)N5C4CCC(=O)NC4=O)CC3)nc2c1 (stereo not shown)")
14600
>>> recorded_number("O=C(O)COc1c(C(=O)O)sc(-c2cccc(NC3CCN(S(=O)(=O)Cc4ccc5oc(N6CCC(c7ccc8c9c(cccc79)C(=O)N8C7CCC(=O)NC7=O)CC6)nc5c4)C4(CC4)C3)c2)c1Cl (stereo not shown)")
17000
>>> recorded_number("[2H]C([2H])(c1ccc2oc(N3CCC(c4ccc5c6c(cccc46)C(=O)N5C4CCC(=O)NC4=O)CC3)nc2c1)S(=O)(=O)N1CCC(Nc2cccc(-c3sc(C(=O)O)c(OCC(=O)O)c3Cl)c2)CC1(C)C (stereo not shown)")
14900
>>> recorded_number("O=C(O)COc1c(C(=O)O)sc(-c2cccc(NC3CCN(S(=O)(=O)Cc4ccc5oc(N6CCC(c7ccc8c9c(cccc79)C(=O)N8C7CCC(=O)NC7=O)CC6)nc5c4)CC3)c2)c1Cl (stereo not shown)")
17900

----------
method: PK study in SD rats after a single intravenous administration
Assay type: in vivo
study conditions: Sprague-Dawley (SD), rat, plasma, 1 mg/kg
reported endpoint: clearance (mL/min/kg)

>>> recorded_number("O=C(O)COc1c(C(=O)O)sc(-c2cccc(NC3CCN(S(=O)(=O)Cc4ccc5oc(N6CCC(c7ccc8c9c(cccc79)C(=O)N8C7CCC(=O)NC7=O)CC6)nc5c4)C4(CC4)C3)c2)c1Cl (stereo not shown)")
0.351
>>> recorded_number("O=C(O)COc1c(C(=O)O)sc(-c2cccc(NC3CCN(S(=O)(=O)Cc4ccc5oc(N6CCC(c7ccc8c9c(cccc79)C(=O)N8C7CCC(=O)NC7=O)CC6)nc5c4)CC3)c2)c1Cl (stereo not shown)")
0.684
>>> recorded_number("CC1(C)CC(Nc2cccc(-c3sc(C(=O)O)c(OCC(=O)O)c3Cl)c2)CCN1S(=O)(=O)Cc1ccc2oc(N3CCC(c4ccc5c6c(cccc46)C(=O)N5C4CCC(=O)NC4=O)CC3)nc2c1 (stereo not shown)")
0.661
>>> recorded_number("[2H]C([2H])(c1ccc2oc(N3CCC(c4ccc5c6c(cccc46)C(=O)N5C4CCC(=O)NC4=O)CC3)nc2c1)S(=O)(=O)N1CCC(Nc2cccc(-c3sc(C(=O)O)c(OCC(=O)O)c3Cl)c2)CC1(C)C (stereo not shown)")
0.568

----------
method: PK study in SD rats after a single intravenous administration
Format: in vivo
study conditions: Sprague-Dawley (SD), rat, plasma, 2 mg/kg, 0.25 h
reported endpoint: concentration at 0.25 h (ng/mL)

>>> recorded_number("CC1(C)C[C@@H](Nc2cccc(-c3sc(C(=O)O)c(OCC(=O)O)c3Cl)c2)CCN1S(=O)(=O)Cc1cccc(NC(=O)N2CCC(c3ccc4c5c(cccc35)C(=O)N4[C@H]3CCC(=O)NC3=O)CC2)c1 [Ref. Cpd, reference compound]")
8300

----------
method: PK study in SD rats after a single intravenous administration
Assay type: in vivo
study conditions: Sprague-Dawley (SD), rat, plasma, 2 mg/kg, read-out: AUC0-24 h
reported endpoint: AUC(0-t) (ng·h/mL)

>>> recorded_number("CC1(C)C[C@@H](Nc2cccc(-c3sc(C(=O)O)c(OCC(=O)O)c3Cl)c2)CCN1S(=O)(=O)Cc1cccc(NC(=O)N2CCC(c3ccc4c5c(cccc35)C(=O)N4[C@H]3CCC(=O)NC3=O)CC2)c1 [Ref. Cpd, reference compound]")
7490

----------
method: PK study in SD rats after a single intravenous administration
Type: in vivo
study conditions: Sprague-Dawley (SD), rat, plasma, 1 mg/kg, 10 h
reported endpoint: concentration at 10 h (ng/mL)

>>> recorded_number("O=C(O)COc1c(C(=O)O)sc(-c2cccc(NC3CCN(S(=O)(=O)Cc4ccc5oc(N6CCC(c7ccc8c9c(cccc79)C(=O)N8C7CCC(=O)NC7=O)CC6)nc5c4)CC3)c2)c1Cl (stereo not shown) [Compound 23]")
95.1
>>> recorded_number("[2H]C([2H])(c1ccc2oc(N3CCC(c4ccc5c6c(cccc46)C(=O)N5C4CCC(=O)NC4=O)CC3)nc2c1)S(=O)(=O)N1CCC(Nc2cccc(-c3sc(C(=O)O)c(OCC(=O)O)c3Cl)c2)CC1(C)C (stereo not shown) [Compound 151]")
279
>>> recorded_number("CC1(C)CC(Nc2cccc(-c3sc(C(=O)O)c(OCC(=O)O)c3Cl)c2)CCN1S(=O)(=O)Cc1ccc2oc(N3CCC(c4ccc5c6c(cccc46)C(=O)N5C4CCC(=O)NC4=O)CC3)nc2c1 (stereo not shown) [Compound 21]")
321
>>> recorded_number("O=C(O)COc1c(C(=O)O)sc(-c2cccc(NC3CCN(S(=O)(=O)Cc4ccc5oc(N6CCC(c7ccc8c9c(cccc79)C(=O)N8C7CCC(=O)NC7=O)CC6)nc5c4)C4(CC4)C3)c2)c1Cl (stereo not shown) [Compound 57]")
809

----------
// reported concentration at 1 h for each item listed
method: PK study in SD rats after a single intravenous administration
Type: in vivo
study conditions: Sprague-Dawley (SD), rat, plasma, 1 mg/kg, 1 h
reported endpoint: concentration at 1 h (ng/mL)

>>> recorded_number("O=C(O)COc1c(C(=O)O)sc(-c2cccc(NC3CCN(S(=O)(=O)Cc4ccc5oc(N6CCC(c7ccc8c9c(cccc79)C(=O)N8C7CCC(=O)NC7=O)CC6)nc5c4)CC3)c2)c1Cl (stereo not shown) [Compound 23]")
7110
>>> recorded_number("[2H]C([2H])(c1ccc2oc(N3CCC(c4ccc5c6c(cccc46)C(=O)N5C4CCC(=O)NC4=O)CC3)nc2c1)S(=O)(=O)N1CCC(Nc2cccc(-c3sc(C(=O)O)c(OCC(=O)O)c3Cl)c2)CC1(C)C (stereo not shown) [Compound 151]")
7920
>>> recorded_number("O=C(O)COc1c(C(=O)O)sc(-c2cccc(NC3CCN(S(=O)(=O)Cc4ccc5oc(N6CCC(c7ccc8c9c(cccc79)C(=O)N8C7CCC(=O)NC7=O)CC6)nc5c4)C4(CC4)C3)c2)c1Cl (stereo not shown) [Compound 57]")
8730
>>> recorded_number("CC1(C)CC(Nc2cccc(-c3sc(C(=O)O)c(OCC(=O)O)c3Cl)c2)CCN1S(=O)(=O)Cc1ccc2oc(N3CCC(c4ccc5c6c(cccc46)C(=O)N5C4CCC(=O)NC4=O)CC3)nc2c1 (stereo not shown) [Compound 21]")
5980
